Tested on: DU-145 prostate
Assay: NCI tumour cell line growth inhibition, 48 h
READOUT KIND: TGI (µM)

* O=C1OCC2=C1C(c1cccc(Br)c1)c1cc3c(cc1N2CCO)CCC3 (centres undefined) | 0.466
* COc1cc2c(cc1OCCCNC(=O)c1cccc3c(=O)c4ccccc4[nH]c13)N=C[C@@H]1CCCN1C2=O | 13.5

---

System: OVCAR-3 ovarian
Assay: NCI tumour cell line growth inhibition, 48 h; in the data active = GI50 below about 0.43 µM; inactive = the rest
Labels: active, inactive

- C=C(Cl)C(Br)(CCl)CCC(Br)C(C)(C)Cl (stereo not given): inactive
- O=C(Nc1ccncc1)C(=O)c1cn(S(=O)(=O)c2ccc(F)cc2)c2ccccc12: inactive
- Clc1ccc2[nH]cc(-c3nnnn3-c3ccccc3)c2c1: inactive
- O=C1OCC2=C1C(c1cccc(Br)c1)c1cc3c(cc1N2CCO)CCC3 (stereo not given): active
- CCC(/C=C/C1OC(=O)C=CC1C)=C\C(C)C/C=C/C(C)=C/C(C)C(=O)C(C)C(O)C(C)C/C(C)=C/C(=O)O (stereo not given): active
